Test system: DU-145 prostate
Assay: NCI tumour cell line growth inhibition, 48 h; in the data active means GI50 below about 0.43 µM; inactive means the rest
Respond only with the outcome that fits, drawn from yes (1) = active, no (0) = inactive

Example results:
{"molecule": "O=[N+]([O-])c1ccc(N/N=C/c2ccccc2O)nc1", "measurement target": "DU-145 prostate", "category label": "no (0)"}
{"molecule": "Cc1cc(NS(=O)(=O)c2ccc(NC(=O)COc3ccc(-c4cc5ccccc5[nH]4)cc3)cc2)no1", "measurement target": "DU-145 prostate", "category label": "no (0)"}
{"molecule": "COc1cc(C2CC(=O)c3c(C)nn(-c4nc5ccccc5[nH]4)c3C2)cc(OC)c1OC (configuration not stated)", "measurement target": "DU-145 prostate", "category label": "no (0)"}
{"molecule": "NC(Cc1ccc(O)cc1)C(=O)N/N=C/c1ccc(N(CCCl)CCCl)cc1 (configuration not stated)", "measurement target": "DU-145 prostate", "category label": "no (0)"}
{"molecule": "Oc1[nH]c2ccc(Cl)cc2c1/C=c1/ccc2c(c1)N=C(c1ccc(C(F)(F)F)cc1)N=2", "measurement target": "DU-145 prostate", "category label": "no (0)"}
{"molecule": "O=C1c2cccc3cccc(c23)C(=O)N1CC#Cc1ccc2c3c(cccc13)C(=O)N(CCN1CCNCC1)C2=O", "measurement target": "DU-145 prostate", "category label": "no (0)"}
{"molecule": "Cc1ccc2c(n1)C(=O)C(Cl)=C(Nc1ccc(N3CCN(C)CC3)cc1)C2=O", "measurement target": "DU-145 prostate", "category label": "no (0)"}
{"molecule": "CCc1ccc(Oc2nccc(-c3c(-c4ccc(F)cc4)ncn3C3CCNCC3)n2)cc1", "measurement target": "DU-145 prostate", "category label": "no (0)"}
{"molecule": "CC(=O)Nc1c(I)c(C(=O)O)c(I)c(N(C)C(C)=O)c1I", "measurement target": "DU-145 prostate", "category label": "no (0)"}
{"molecule": "Nc1cccc2c1CN(C1CCC(=O)NC1=O)C2=O (configuration not stated)", "measurement target": "DU-145 prostate", "category label": "no (0)"}

Please state the recorded outcome for this molecule: O=c1c(-c2ccc3c(c2)OCO3)coc2c(CO)c(O)ccc12
no (0)

Assay outcome for Cc1cc(Br)c2nsnc2c1[N+](=O)[O-] : what was it?
no (0)

Test call, this molecule: COc1ccccc1N(C(C)=O)C1=C(Cl)C(=O)c2ccccc2C1=O
no (0)

Assay result, entry Cc1ccc(NC(C(=O)c2ccccc2)c2ccccc2)cc1 (configuration not stated) — outcome?
no (0)

---

Recorded GI50 for the following compounds
System: HOP-92 NSCLC
Assay: NCI tumour cell line growth inhibition, 48 h

Worked examples follow.
{"compound": "Cc1ccn2c(-c3csc(Nc4cccc(O)c4)n3)c(C)nc2c1", "GI50": "1.75 µM"}
{"compound": "O=c1[nH]cc(CO)c(=O)[nH]1", "GI50": "> 100 µM"}
{"compound": "O=C(CCCCCNC1=CC(=O)c2ccccc2C1=O)NCCC[Te]c1ccccc1", "GI50": "0.583 µM"}
{"compound": "CCOC(=O)c1c(C(F)(F)F)n([O-])c2ccc(Cl)cc2[n+]1=O", "GI50": "1.17 µM"}

Please look at CC(=O)Nc1cc(C(c2ccccc2)c2ccccc2)cc(C(c2ccccc2)c2ccccc2)c1C and tell me its recorded GI50 on HOP-92 NSCLC.
4.68 µM

Please report GI50 with HOP-92 NSCLC for item Cc1cc(NS(=O)(=O)c2ccc(NC(=O)COc3ccc(-c4cc5ccccc5[nH]4)cc3)cc2)no1 .
1.3 µM

// output GI50; input Nc1nccc2c1ncn2C1C=C(CO)C(O)C1O (stereo not given) ; system HOP-92 NSCLC
> 1000 µM

Give measured GI50 for NS(=O)(=O)c1cccc(-c2cc3ccncc3cc2OCc2ccccc2)c1 (HOP-92 NSCLC).
4.39 µM

Write down measured GI50 (HOP-92 NSCLC) for this compound. Cc1cc(C(=O)N2CCN(C)CC2)c2c(=O)n(-c3ccccc3)c(=O)n(CC(O)CN3CCN(c4ncccn4)CC3)c2n1 (stereo not given)
> 100 µM

Provide GI50, recorded with HOP-92 NSCLC, of Oc1[nH]c2ccc(Cl)cc2c1/C=c1/ccc2c(c1)N=C(c1ccc(C(F)(F)F)cc1)N=2
1.68 µM
